Overview of recorded Peak Ratio, CHTX, SUP B-15, 1.0 uM for various binders
# tested.target: CXCR4 receptor (human, UniProt P61073 1-352)
# Sequence (P61073 whole entry): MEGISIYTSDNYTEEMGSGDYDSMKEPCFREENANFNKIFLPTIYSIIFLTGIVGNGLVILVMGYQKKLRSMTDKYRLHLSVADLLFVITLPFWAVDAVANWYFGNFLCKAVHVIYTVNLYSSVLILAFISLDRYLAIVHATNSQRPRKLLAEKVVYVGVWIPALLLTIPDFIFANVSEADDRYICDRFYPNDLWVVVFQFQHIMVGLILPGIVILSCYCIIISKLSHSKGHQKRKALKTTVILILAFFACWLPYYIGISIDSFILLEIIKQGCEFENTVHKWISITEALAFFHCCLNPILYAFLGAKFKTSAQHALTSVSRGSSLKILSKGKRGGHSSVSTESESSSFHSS
# measurement.notes: cell-based or functional assay
* marks the point of attachment. Palmitoyl = CCCCCCCCCCCCCCCC(=O)*

# binder, reported
measured = [
    ("Palmitoyl-VMGYQKKLRSMTD-NH2 (SMILES CCCCCCCCCCCCCCCC(=O)N[C@H](C(=O)N[C@@H](CCSC)C(=O)NCC(=O)N[C@@H](Cc1ccc(O)cc1)C(=O)N[C@@H](CCC(N)=O)C(=O)N[C@@H](CCCCN)C(=O)N[C@@H](CCCCN)C(=O)N[C@@H](CC(C)C)C(=O)N[C@@H](CCCNC(=N)N)C(=O)N[C@@H](CO)C(=O)N[C@@H](CCSC)C(=O)N[C@H](C(=O)N[C@@H](CC(=O)O)C(N)=O)[C@@H](C)O)C(C)C) [CXCR4 i1 loop compound 35]", 0.2),
]

Task item: Look up Peak Ratio, CHTX, SUP B-15, 1.0 uM for this binder: Palmitoyl-KKLRSMTDKY-NH2 (SMILES CCCCCCCCCCCCCCCC(=O)N[C@@H](CCCCN)C(=O)N[C@@H](CCCCN)C(=O)N[C@@H](CC(C)C)C(=O)N[C@@H](CCCNC(=N)N)C(=O)N[C@@H](CO)C(=O)N[C@@H](CCSC)C(=O)N[C@H](C(=O)N[C@@H](CC(=O)O)C(=O)N[C@@H](CCCCN)C(=O)N[C@@H](Cc1ccc(O)cc1)C(N)=O)[C@@H](C)O) [CXCR4 i1 loop compound 46]
Reply: 0.2
